Attribution: patent US8476197B2

Run parameters: pH 2.7
Marks after values point to notes of the source that are not given here.
Readout kind: Log P

Compound	Readout kind	Test value
CCOC(=O)C(C#N)=C(NC(C)COC)c1cn(C)nc1C(F)F (stereo not drawn)	Log P	2.41^[a]
CCOC(=O)C(C#N)=C(NC(C)C(C)(C)C)c1ccsc1Br (racemic)	Log P	4.36^[a]
CC(C)C(C)NC(=C(C#N)C(=O)Nc1ccncc1)c1cccnc1Cl (stereo not drawn)	Log P	1.58^[a]
CCOC(=O)C(C#N)=C(NC(C)c1ccccc1)c1cccnc1Cl (stereo not drawn)	Log P	3.48^[a]
CCOC(=O)C(C#N)=C(NC(C)c1nccs1)c1ccnc(C)c1F (stereo not drawn)	Log P	2.48^[a]
CCOCC(C)NC(=C(C#N)C(=O)OCC)c1cc(C)oc1C (stereo not drawn)	Log P	3.42^[a]
CCOC(=O)C(C#N)=C(NC(C)C1CC1)c1ccnc(C(F)(F)F)c1Cl (stereo not drawn)	Log P	3.85^[a]
CCOC(=O)C(C#N)=C(NC(C)CF)c1cn(C)nc1OC (stereo not drawn)	Log P	2.23^[a]
CCOC(=O)C(C#N)=C(NC(C)CN(C)C)c1sc(C)nc1C(F)(F)F (stereo not drawn)	Log P	1.35^[a]

###

Run parameters: pH 2.7
Marks after values point to notes of the source that are not given here.
Readout kind: Log P

Compound	Test value
CCOC(=O)C(C#N)=C(NCC(N)=O)c1cn(C)nc1C(F)F	2.1^[a]
CCOC(=O)C(C#N)=C(NC(C)COC)c1cc(Cl)sc1Cl (stereo not drawn)	3.78^[a]
CCOC(=O)C(C#N)=C(NCCCCO)c1cccnc1Cl	1.75^[a]
CCCCCCC(C)NC(=C(C#N)C(=O)OCC)c1ccsc1Br (racemic)	5.41^[a]
CCOC(=O)C(C#N)=C(NC(C)c1nccs1)c1ccnc(Cl)c1Cl (mixture of isomers) [Compound 291]	2.96^[a]
CCC(C)NC(=C(C#N)C(=O)OC)c1cccnc1Cl (stereo not drawn)	2.55^[a]
C=CCCCC(C=C)NC(=C(C#N)C(=O)OCC)c1c(C)nn(C)c1Cl (racemic)	4.04^[a]
CCOC(=O)C(C#N)=C(NCc1ccccc1SC)c1ccsc1Br	4.01^[a]
CCOC(=O)C(C#N)=C(NC(C)Cc1cc2ccccc2[nH]1)c1sc(C)nc1C(F)(F)F (racemic)	3.85^[a]
COC(=O)C(C#N)=C(NC1CCC(C)CC1)c1cccnc1Cl (stereo not drawn)	3.37^[a]
CCOC(=O)C(C#N)=C(NC1(c2ccccc2)CC1)c1cn(C)nc1C(F)F	3.21^[a]
CCOC(=O)C(C#N)=C(NC(c1cc2ccccc2s1)C(F)(F)F)c1sccc1C(F)(F)F (stereo not drawn)	4.89^[a]
CCOC(=O)C(C#N)=C(NC(C)C(N)=O)c1ccsc1Br (stereo not drawn)	1.9^[a]
COC(=O)C(C#N)=C(NC(C)c1ccccc1)c1cccnc1Cl (stereo not drawn)	2.89^[a]
CCOC(=O)C(C#N)=C(NC(C)COc1cccc(C(F)(F)F)c1)c1cccnc1Cl (stereo not drawn)	4.13^[a]
CCOC(=O)C(C#N)=C(Nc1ccccc1C(O)(C(F)(F)F)C(F)(F)F)c1cn(C)nc1C(F)F	3.25^[a]
CCOC(=O)C(C#N)=C(NC(C)C1CCC1)c1cn(C)nc1C(Cl)Cl (racemic)	3.67^[a]
CCOC(=O)C(C#N)=C(NC(C)c1ccccn1)c1cnn(C)c1Cl (racemic)	2.35^[a]
